# TESTED TARGET: Endonuclease 4 (Escherichia coli (strain K12))
# TEST SUMMARY: Counterscreen for APE1 Inhibitors: qHTS Validation Assay for Inhibitors of Endonuclease IV (AID 1708)
# STUDY CONDITIONS: E. coli endonuclease IV, DNA cleavage fluorescence; series mostly up to 57.1 µM
Results filed as inconclusive are left out. The source made the active and inactive calls. Calls follow the shape of the dose curve; as a rule, active = well fitted inhibition curve with a large enough effect; inconclusive = small, poorly fitted or top-dose-only effect; inactive = no such curve, though single readings can be large or run the other way.
PROPERTY NAME: outcome

Below are worked cases with known answers.
COc1cc(C(O)CN)ccc1O (stereo unspecified)
inactive
Cn1cnc(CCN)c1
inactive
O=C1CCCN1CC#CCN1CCCC1
inactive
CCCN1CCO[C@@H]2c3cc(O)ccc3OC[C@H]21
inactive
CN[C@@H](C)[C@H](O)c1ccccc1
inactive

// map `Clc1cnc(Oc2ccc(Oc3ncc(Cl)cc3Cl)cc2)c(Cl)c1` to recorded outcome (system: Endonuclease 4 (Escherichia coli (strain K12)))
inactive

// map `CC[C@@H]1C(=O)OC[C@@H]1Cc1cncn1C` to recorded outcome (system: Endonuclease 4 (Escherichia coli (strain K12)))
inactive

// map `NCCc1c[nH]c2ccccc12` to recorded outcome (system: Endonuclease 4 (Escherichia coli (strain K12)))
inactive

Ref: PubChem BioAssay (NCATS)
